Origin of measurements: paper PMC12040169

- test_name: in vitro
- protocol_conditions: human, hela cells, % viability
property_label: viability at 28.5 h, 10 µM

| compound | property_label | test_result |
| --- | --- | --- |
| O=C(NCc1ccccc1)c1c(O)c2ccccc2n(Cc2ccccc2)c1=O | viability at 28.5 h, 10 µM | 91.6% |
| Clc1ccc(COc2ccnc(N3CCCN(CC4CC4)CC3)n2)cc1Cl | viability at 28.5 h, 10 µM | 81.3% |
| CCOc1ccccc1NC(=O)CNS(=O)(=O)c1ccccc1 | viability at 28.5 h, 10 µM | 86.9% |
| Cc1cccc(C)c1N1CCN(CCn2c(=S)[nH]c3ccccc3c2=O)CC1 | viability at 28.5 h, 10 µM | 89.9% |
| COc1ccc2cc(Cn3nc(C(=O)O)c4ccccc4c3=O)c(Cl)nc2c1 | viability at 28.5 h, 10 µM | 88% |
| CN1CC(C(=O)N2CCCC(c3cc4cccnc4[nH]3)C2)CC1=O (stereo not shown) | viability at 28.5 h, 10 µM | 92.5% |
| Cn1cnnc1CCC(=O)NCC1CCN(c2ccccc2F)C1 (stereo not shown) | viability at 28.5 h, 10 µM | 76.5% |
| CCOCCNS(=O)(=O)c1ccc(C(C)(C)CC)cc1 | viability at 28.5 h, 10 µM | 98.2% |
| N#CCc1c(-c2ccc(Br)cc2)nc2ccccn12 | viability at 28.5 h, 10 µM | 100% |
| Cc1cc(C)c2cc(CNC3CC3)c3nn(C)c(=O)n3c2c1 | viability at 28.5 h, 10 µM | 93.8% |
| CCC(=O)N1CCN(c2ccccc2NC(=O)c2ccc(C#N)cc2F)CC1 | viability at 28.5 h, 10 µM | 81.8% |
| CN(C)CCOC(=O)c1ccc(S(=O)(=O)N(C)C)o1 [CBK264273C] | viability at 28.5 h, 10 µM | 100% |
| O=C(Cc1ccc(NS(=O)(=O)c2cc(Cl)c(Cl)s2)nc1)N1CCOCC1 | viability at 28.5 h, 10 µM | 96.5% |
| Cc1cccc(Cn2c(=O)c3cnc(-c4ccncc4)nc3n(C)c2=O)c1 | viability at 28.5 h, 10 µM | 82.8% |
| COc1ccc(NC(=O)c2ccc(-c3nnn[nH]3)cc2)cc1OC | viability at 28.5 h, 10 µM | 97.7% |
| CC(=O)Nc1ccc(C(=O)N2CCCC(c3cccc(Cc4ccc(Cl)cc4)n3)C2)cc1 (stereo not shown) | viability at 28.5 h, 10 µM | 99.9% |
| CC(CC(=O)N1CCC(c2cc3cccnc3[nH]2)CC1)n1ccnc1 (stereo not shown) | viability at 28.5 h, 10 µM | 107% |
| c1ccc(OCCSc2nc3ccccc3nc2N2CCCC2)cc1 | viability at 28.5 h, 10 µM | 102% |
| Cc1cccc(C)c1NC(=O)CN(c1ccc(F)cc1)S(=O)(=O)c1ccc2c(c1)OCCO2 | viability at 28.5 h, 10 µM | 104% |

---

- test_name: in vitro
- protocol_conditions: human, hela cells, % viability

| molecule | viability at 28.5 h, 10 µM [%] |
| --- | --- |
| COc1ccc(/C=C(\C)C(=O)Nc2cc3ccccc3c(N3CCNCC3)n2)cc1OC [CBK038937T] | 82.1 |
| Cc1ccc(S(=O)(=O)NCCN2CCN(S(=O)(=O)c3ccc(C)cc3)CC2)cc1 | 115 |
| O=S(=O)(c1ccccc1)n1ccc2c(Br)cccc21 | 113 |
| COc1ccc(-c2oc(C(=O)N(C)C)c(C(=O)O)c2-c2ccc(OC)cc2)cc1 | 90.5 |
| Cc1cccc(-c2ncc(NC(=O)C3CC3)nc2-c2cccnc2)c1 | 98.9 |
| Cc1ccc(-c2nnc(SCC(=O)Nc3ccc(N4CCOCC4)cc3)n2C)cc1 | 111 |
| CC(Cn1cncn1)NC(=O)c1cccc(S(=O)(=O)NC2CCCC2)c1 (stereo not shown) | 89 |
| CNCCOc1ncccc1OCc1ccccc1 | 100 |
| COc1cnc(-c2ccccc2)c(NC(C)=O)n1 | 93.4 |
| Cc1cc(-c2nnc(NCc3ccnn3C)o2)c(C)o1 | 84.6 |
